# Assay remarks: yeast display, Sf9 membrane polyspecificity reagent, FACS + sequencing; frameworks hold sequencing errors
Measurement type: polyreactivity (PSR sort gate)

Some entries whose results are on file:
QVQLVESGGGLVQAGGSLRLSCAASGFTLEFYAMGWYRQAPGKERELVASISSGGRTNYADSVKGRFTISRDNAKNTVFLQMNSLKPEDTAVYYCAAEYRSWGRYRYRFNYWGQGTQVTVSS high polyreactivity
QVQLVESGGGLVQAGGSLRLSCADSGGTFESYAMGWYRQAPGKERELVAAITGRGGRTYYADSVKGRFTISRDNAKNTVYLQRNSLKPEDTAVYYCAARSPPRGYSRILDYWGQGTQVTVSS high polyreactivity
QVQLVESGGGLVQAGGSLRLSCAASGFIFWSYAMGWYRQAPGKERELVAAISWSGGRTYYADSVKGRFTISRDNAKNTVYLQMNSLKPEDTAVYYCAAVIRYGSQYPALDYWGQGTQVTVSS high polyreactivity
EVQLVESGGGLVQAGGSLRLSCAAYGSTFSTYAMGWYRQAPGKERELVAAISFGGGSTYADSVKGRFTISRDNAKNTVYLQMNSLKPEDTAVYYCNTDLYLYGWYPRDVQQYAGGDYWGQGTQVTVSS low polyreactivity
QVQLVESGGGLVQAGGSLRLSCAASGFIFNWYAMGWYRQAPGKERELVAAITSGGSTNYADSVKGRFTISRDNAKNTVYLQMNSLKTEDTAVYYCAARHWRRYGYWGQGTQVTVSS high polyreactivity

# input So what does the record say about polyreactivity (PSR sort gate) for QVQLVESGGGLDQARGSLRLSCAASGRIFWRYAMGWYRQAPGKERELVASISSGGSTNYADSVKGRFTISRDNAKNTVYLQMNSLKPEDTAVYYCNAQAWHLGVITGRWNRYEYWGQGTQVTVSS ?
# output high polyreactivity

# input Value lookup for polyreactivity (PSR sort gate); key = QVQLVESGGGLVQAGGSLRLSCAASGSIFYPYAMGWYRKAPGKERELVASITINDGSTYYADSVKGRFTISRDNAKHTFYLPMNRLIQEDPAVYYCNVDPVPGFGSVYEYWGQGTQVTVSS
# output low polyreactivity

# input Query: polyreactivity (PSR sort gate); subject: QVQLVESGGGLVQAGASLRLSCAASGSTFLRNAMGWYRQAPGKKGSWVATISYDGDSTYYADSVKGRFTISRDNTKNTVYLQMNSLKPEDPAVYYCAASYSLTFWDKDDYWGQGTQVSVSS
# output low polyreactivity

# input GET /values?readout=polyreactivity (PSR sort gate)&item= QVQLVESGGGLVQAGGSLRLSCAASGFISDVYAMGWYRQAPGKERELVAVITWRGSTYYADSVKGRFTISRDNAKNTVYLQMNSLKPEDTAVYYCAAESQGDWAFDYWGQGTQVTVSS
# output low polyreactivity

# input Any idea what its polyreactivity (PSR sort gate) is? The sequence is QVQHVESGGGLVKAGGSLRLSCAASGFTFGVYAMGWYRLAPGKERELVAAISRRGTSTYYADSVKGRFTISRDNAKNTVYLQMNSLKPEDTAVYYCNARRYQVTVDHWGQGTQVTVSS
# output high polyreactivity

# input Which value of polyreactivity (PSR sort gate) has been reported for QVQLVESGGGLVQAGGSLRLSCAASGGTFRGYTMGWYRPAPGKERELVAAITRIGGSTYYADSVKGRFTISRDNAKYTVYLQMNSLKPEDTAVYYCAARGGVPYSNAYDFWGQGTQVTVSS in the records?
# output low polyreactivity

Source of measurements: the nanobody polyreactivity screen of Harvey et al. (2022)
